IC50, AKT1 (Homo sapiens), per-entry values.

- smi: "CN1CC(=O)Nc2cc(-c3ccccc3)c(-c3ccc(C4(N)CCC4)cc3)nc21"
  IC50: "100 to 1000 nM"
- smi: "CCN1C(=O)COc2nc(-c3ccc([C@]4(N)C[C@](C)(O)C4)cc3)c(-c3ccccc3)cc21"
  IC50: "≤ 100 nM"
- smi: "Cc1nnc2n1-c1cc(-c3ccccc3)c(-c3ccc(C4(N)CCC4)cc3)nc1OC2"
  IC50: "100 to 1000 nM"
- smi: "NC1(c2ccc(-c3nc4c(cc3-c3ccccc3)-c3n[nH]cc3CC4)cc2)CCC1"
  IC50: "≤ 100 nM"

// returns IC50 for Cc1nc2c([nH]1)CCc1nc(-c3ccc(C4(N)CCC4)cc3)c(-c3ccccc3)cc1-2 with AKT1 (Homo sapiens); value = 100 to 1000 nM

Given the compound C=CCN1C(=O)COc2nc(-c3ccc(C4(N)CCC4)cc3)c(-c3ccccc3)cc21 and test system AKT1 (Homo sapiens), the measured IC50 is 100 to 1000 nM

Record CN1C(=O)COc2nc(-c3ccc([C@]4(N)C[C@](C)(O)C4)cc3)c(-c3ccccc3)cc21 / AKT1 (Homo sapiens), IC50 recorded as ≤ 100 nM

Summary: CN1Cc2nc(-c3ccc(C4(N)CCC4)cc3)c(-c3ccccc3)cc2N(C)C1=O , AKT1 (Homo sapiens), IC50 = 100 to 1000 nM
